Provenance of the data: the supplement of paper PMC6555819

Provide the recorded PBM binding z-score for the entries that follow.
Test system: LXRb homodimer (NR concentration 270 nM)
Experiment: PBM binding z-score (relative to random genomic background probes); higher = stronger binding; sequences stand for … in GC…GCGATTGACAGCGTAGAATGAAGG
Answer with a number only.

Give reported PBM binding z-score value for GATACAGAGTCAAGGCCAGAGTACGCGTATTGAT
-0.712

Give reported PBM binding z-score value for CAAACTAGGTCAAGGTCAACGTCGGTTTGTGCCA
0.922

Give reported PBM binding z-score value for TCAGACAGGTGATGGTAACTCAGGTACGCAGTCG
-0.117

Give reported PBM binding z-score value for CATACAGAGTCAGCTAGGCCAGAGTAGGGACGGC
-0.106

Give reported PBM binding z-score value for CAAACTAGGTCACGAAAGGCCAAAGTCGAATGAC
0.629

Give reported PBM binding z-score value for CATACAGGGTCAGCTAGGACAGAGTAGGGACGGC
0.178

Give reported PBM binding z-score value for CCTTACGGGTCACTGACAGGTTCTAGCATTTGGA
0.128

Give reported PBM binding z-score value for ACTATTAGTTGGCTTAGGGCAACCGATACGACGC
0.573

Give reported PBM binding z-score value for ACTATTAGTTGAGACGAGGGCAACTGATAGGTTG
-0.0432

Give reported PBM binding z-score value for ATCTCTAGCTAAGACTCAGTTCAGTGAAGAACGC
0.629

Give reported PBM binding z-score value for CTCGAAAGGTCCTGCTCAGGTGAGTATACCAAAC
-0.603

Give reported PBM binding z-score value for CGAACTAGGTCATTGACAGGACAGGGAATAGTAA
-0.158

Give reported PBM binding z-score value for TCTGCTAGGTCATTTGGTCAGCTAACGAGCTGCC
1.81

Give reported PBM binding z-score value for ATCGAAAGGTTGAAGGTGAGTATACCCACCCGAA
0.0854

Give reported PBM binding z-score value for GCTAGTTCGTCAGTAAAAGGTCACACACCGGTCG
0.683

Give reported PBM binding z-score value for CCTAGCAGCCCAATCTGGGTCACTCAAGGCTTGA
-0.695

Give reported PBM binding z-score value for TAGCCTAGGTCATGGGCTAGTATACCACGCGAAC
-0.806

Give reported PBM binding z-score value for TCATATAGGTTAACAGGTGAAAGTCCGTAAGTTA
0.145

Give reported PBM binding z-score value for CGTCCAAGGTCAGCAGGTCAGTCAAAGCGACGTG
-0.456

Give reported PBM binding z-score value for ATCTCTAGGTAAAAGTTCAGGGAATCCCGAGGAT
1.04

Give reported PBM binding z-score value for TCTGGTTGGTCACGGAGGTCACACACGACGGGTA
1.47

Give reported PBM binding z-score value for CAACCTAGGTCAAGAGGTCAAAGTCCGCTTCCCG
1.82

Give reported PBM binding z-score value for AGAACGAGGGCAATTAGTTGATAGCACGGGTGGC
-0.23

Give reported PBM binding z-score value for CCTACTGCGCCAAAGGTCATTGATTCCAATGCTC
1.91

Give reported PBM binding z-score value for CCAACTGGGCCAAAGGTCATTGATTCCAATGCTC
0.383

Give reported PBM binding z-score value for GCATACAGGTAATACAAGGTGAAAGTCCGATTGT
-0.363
